Origin of the recorded values: the kinase profiling compilation of Christmann-Franck et al. (2016)

Recorded kinase still bound, per cent of control by entry
Biological target: EPHA2 (human)
Assay: KINOMEscan competition binding
Conditions: compound 10.0 µM

Line Notation	Assay System	kinase still bound, per cent of control
CCN1CCN(C(=O)Cc2ccc(Nc3ncc(F)c(Nc4ccc(C(=O)Nc5ccccc5Cl)cc4)n3)cc2)CC1	EPHA2 (human)	51%
C=CC(=O)Nc1ccc(CN(C(=O)Nc2c(Cl)c(OC)cc(OC)c2Cl)c2cc(Nc3ccc(N4CCN(C)CC4)cc3)ncn2)cc1	EPHA2 (human)	100%
O=c1cc(N2CCOCC2)oc2c(-c3cccc4c3sc3ccccc34)cccc12	EPHA2 (human)	72%
COc1cc(C(=O)N2CCC(N3CCN(C)CC3)CC2)ccc1Nc1ncc2c(n1)N(C)c1ccccc1C(=O)N2C	EPHA2 (human)	92%
COc1ccc(N(C(=O)Oc2c(C)cccc2C)c2ccnc(Nc3ccc(N4CCN(C)CC4)cc3)n2)c(OC)c1	EPHA2 (human)	0%
CNC(=O)c1cc(Oc2ccc(NC(=O)Nc3ccc(Cl)c(C(F)(F)F)c3)cc2)ccn1	EPHA2 (human)	18%
